Test system: T-47D breast
Assay: NCI tumour cell line growth inhibition, 48 h; in the data active means GI50 below about 0.43 µM; inactive means the rest
# valid calls are active, inactive; nothing else

Some solved entries appear below for comparison.
# molecule, class
records = [
    ("Nc1nc2cc(O)ccc2n2cc3c(F)cccc3c12", "inactive"),
    ("Cc1cc(=O)n2nnc3c4ccccc4ccc3n12", "inactive"),
    ("CCOC(=O)/C(C#N)=C\\C=C(\\Sc1nc2ccccc2s1)c1ccc(Cl)cc1", "inactive"),
    ("Cc1ccc(C2=Nc3c(N)nc(N)nc3NC(c3cccc(Nc4ccnc5cc(C(F)(F)F)ccc45)c3)C2)cc1 (stereo not given)", "inactive"),
    ("Cc1ccc(CN(C)c2ccc(CO)c(Cl)c2)cc1", "active"),
]

Q: Assay result, entry Nc1c(C(=O)c2cccc(OC[C@@H](O)CO)c2)cnn1-c1ccc(F)cc1 — outcome?
Result: inactive

Q: What classification did COC(=O)/C=C1/SC(=Nc2ccc(F)cc2)N(CCc2c[nH]c3ccc(O)cc23)C1=O end up with in this test?
Result: inactive

---

System: SN12C renal
Experiment: NCI tumour cell line growth inhibition, 48 h
In this section we review reported TGI values for a set of compounds.

# compound, TGI
measured = [
    ("CC(C)NC(C)C(C)c1ccccc1 (stereo unspecified)", "> 100 µM"),
    ("O=NN1CCNC1Cc1ccccc1 (stereo unspecified)", "> 100 µM"),
    ("C=C=C(Sc1ccccc1)C(C)(C)O", "> 100 µM"),
    ("CN(C)c1ccc(/C=C2\\C[C@H]3[C@@H]4CC=C5C[C@@H](O)CC[C@]5(C)[C@H]4CC[C@]3(C)C2=O)cc1", "54.9 µM"),
]

GET /value?item= c1ccc(CC(Cc2ccccc2)C2=NCCCN2)cc1 &field=TGI returns > 100 µM

Record summary for Nc1c(C(=O)c2cccc(OC[C@@H](O)CO)c2)cnn1-c1ccc(F)cc1 : reported TGI = > 25 µM

---

Test system: UO-31 renal
Experiment: NCI tumour cell line growth inhibition, 48 h
quantity_name: TGI (µM)
Provide the reading as a plain figure in µM.

# compound, TGI / µM
measured = [
    ("CCCCCCCCCCCCCCCCCCOP(=O)([O-])OCC[N+](C)(C)C", 36.1),
]

Entry COC1/C(=C\c2ccccc2I)c2ccccc2N1C(C)=O (stereo not given) ; TGI = 9.91

---

Tested on: SF-539 CNS
Test: NCI tumour cell line growth inhibition, 48 h
quantity_name: TGI

# molecule, measured_value
data = [
    ("O=[N+]([O-])c1ccc(C2CC(c3ccc(NCc4nc5ccccc5[nH]4)cc3)=NO2)cc1 (stereo not given)", "> 100 µM"),
]

Lab note: measured TGI of O=C1Nc2c(Cl)cc(Cl)cc2C1=O was 34.4 µM

The molecule identified as O=[N+]([O-])/C(C(Cl)=C(Cl)Cl)=C(/Br)SCc1ccccc1 registered its TGI at 21.4 µM

Sample O=C(O)c1ccc(NCc2nc3cc(Cl)c(Cl)cc3[nH]2)cc1 ; TGI observed: > 100 µM

Sure, the documented TGI for COC(=O)c1cnc(Cl)c([N+](=O)[O-])c1 is 32.1 µM

Item: Cc1ccc(C2CC(c3cccc([N+](=O)[O-])c3)=Nc3ccccc3S2)cc1 (stereo not given) | TGI: > 96.3 µM

---

Tested on: SK-OV-3 ovarian
Assay: NCI tumour cell line growth inhibition, 48 h
quantity_name: TGI

Sample records with TGI:
# compound, measured_value
records = [
    ("Nc1nc(Cl)c(N=Nc2ccc(Cl)cc2)c(NCC2(CO)CCC(CCc3ccccc3)C2)n1 (configuration not stated)", "26.1 µM"),
    ("COc1cc(OC)c(/C=C/c2cc[n+](C)c3ccccc23)c(OC)c1", "17.5 µM"),
    ("O=c1c(=O)c2cscc2c1=O", "> 25 µM"),
    ("CCCCCCCCCCCCCC(=O)NCO", "> 100 µM"),
    ("Nc1c(C(=O)Nc2cccc(C(F)(F)F)c2)sc2nc3c(cc12)C(O)CCC3 (configuration not stated)", "> 100 µM"),
    ("CCc1n[nH]c(=O)n1O", "> 100 µM"),
]

Note: attention shifts to another entry.
Result for COc1cc(O)c2c(c1)OCC1(Cc3cc(OC)c(OC)cc31)C2=O (configuration not stated) , tested on SK-OV-3 ovarian, TGI: > 100 µM

---

System: UO-31 renal
Experiment: NCI tumour cell line growth inhibition, 48 h
quantity_name: TGI

Guide cases for TGI, answers given:
# molecule, measured_value
records = [
    ("COc1cc2c(cc1OCCCN1CCN(C)CC1)N=C[C@@H]1CCCN1C2=O", "> 100 µM"),
    ("COc1cc(OC)c(/C=C/c2cc[n+](C)c3ccccc23)c(OC)c1", "> 100 µM"),
]

The molecule CCOC(=O)N1CCN(P(=O)(Nc2ccc3nc(NC(=O)OC)[nH]c3c2)Oc2ccccc2)CC1 (stereo not given) showed TGI equal to > 100 µM

Noted for COc1cc(C2CC(c3cccc(Nc4ccncc4)c3)=NN2c2ccccc2)cc(OC)c1OC (stereo not given) : its TGI reads 2.81 µM

response.value for COC(=O)C(Cc1ccc(OC)cc1O)NC(=O)OC(C)(C)C (stereo not given) (field: TGI) = > 100 µM

In plain terms, O=C1C(C=NC(=S)c2ccccc2)=C(O)c2ccccc21 has a documented TGI of > 88.9 µM

TGI reading for NNC(=O)c1ccccc1Nc1nc(-c2cccs2)nc2ccc(Br)cc12 : > 100 µM

According to the records, this molecule CCCN1C/C(=C\c2ccc(O)c(OC)c2)C(=O)/C(=C/c2ccc(O)c(OC)c2)C1 displays TGI of > 100 µM

Entry C=[CH][Sn]([CH]=C)([S]c1cccc2cccnc12)[S]c1cccc2cccnc12 ; TGI = 0.358 µM

Record CCc1ccc(C(=O)/C=C/C23c4ccccc4C(c4ccccc42)C2C(=O)NC(=O)C23)cc1 (stereo not given) . Reported TGI: 5.55 µM

---

Tested on: T-47D breast
Experiment: NCI tumour cell line growth inhibition, 48 h
quantity_name: TGI

Reference set (8 entries):
# compound, TGI
measured = [
    ("CCCCC(=O)OC[n+]1ccc(-c2c(COC(=O)NC(C)C)c(COC(=O)NC(C)C)c3n2CCC3)cc1", "> 100 µM"),
    ("CCCCCCCCCCCC(=O)NCc1ccc(OC(=O)CCCCCCCCCCC)c(OC)c1", "> 100 µM"),
    ("c1ccc2c(c1)Oc1cccc3cccc-2c13", "> 100 µM"),
    ("COc1cc([C@@H]2c3cc4c(cc3[C@@H](OC3OC5CO[C@@H](c6cccs6)OC5C(O)C3O)[C@H]3COC(=O)[C@H]23)OCO4)cc(OC)c1O (stereo not given in full)", "4.21 µM"),
    ("CC1(C)Oc2ccccc2OC1O (stereo not given)", "> 100 µM"),
    ("O=C(NC(=S)Nc1ccc2c(c1)Sc1ccccc1O2)c1ccccc1", "> 100 µM"),
    ("Cn1c(-c2ccccc2)cc(-c2cccs2)c1-c1ccsc1", "> 100 µM"),
    ("CC(C)N(CCCNC(=O)Nc1ccc(C(C)(C)C)cc1)C[C@H]1O[C@@H](n2ccc3c(N)ncnc32)[C@H](O)[C@@H]1O", "> 100 µM"),
]

Reported TGI for Nc1nc2cc(O)ccc2n2cc3c(F)cccc3c12 was > 100 µM

For reference, reported TGI for COc1cc(OC)c(/C=C/c2cc[n+](C)c3ccccc23)c(OC)c1 stands at 33.7 µM

---

TGI listing for selected compounds.
Test system: M14 melanoma
Test: NCI tumour cell line growth inhibition, 48 h

# compound, TGI
data = [
    ("O=S(O)CCCCCSSSCCCCCS(=O)O", "> 100 µM"),
    ("CCN(CC)CC(O)CNc1c2ccc(Cl)cc2nc2ccc(OC)cc12 (configuration not stated)", "2.66 µM"),
    ("CC(=O)N1CCC(Nc2ncc3cc(Oc4ccc(F)cc4F)c(=O)n(C)c3n2)CC1", "> 25 µM"),
]

So the reported TGI for Nc1nc2cc(O)ccc2n2cc3c(F)cccc3c12 , on M14 melanoma, turned out to be > 100 µM

The reported TGI value, M14 melanoma, for C=C(C)c1cc(C(C)(C)C)cc(C(=C)C)c1S(C)(=O)=O reads > 100 µM

Here c1ccc(CC(Cc2ccccc2)C2=NCCCN2)cc1 was tested on M14 melanoma, and its TGI came to > 100 µM

Reading of TGI for COc1ccc(/C=C2\COc3ccc(O)c(O)c3C2=O)cc1 with M14 melanoma: > 48.2 µM

---

System: SF-295 CNS
Assay: NCI tumour cell line growth inhibition, 48 h; in the data active = GI50 below about 0.43 µM; inactive = the rest
Log the outcome using a class from Yes = active, No = inactive

Q: In this assay, the call recorded for COc1ccc(/C=C2\COc3ccc(O)c(O)c3C2=O)cc1 was what?
Result: No
